tested on: PPARg:RXRa 270nM:90nM, anti-RXR (NR concentration 270 nM, RXRa partner concentration 90 nM); assay: PBM binding z-score (relative to random genomic background probes); higher = stronger binding; sequences stand for … in GC…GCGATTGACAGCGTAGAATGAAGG
Note to self: class = bucket of PBM binding z-score, per LOW: < 0.5; MID: ≥ 0.5 and < 4; HIGH: ≥ 4

Sequence Code	Class
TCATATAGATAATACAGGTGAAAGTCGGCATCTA	MID
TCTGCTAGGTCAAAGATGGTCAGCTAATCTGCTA	HIGH
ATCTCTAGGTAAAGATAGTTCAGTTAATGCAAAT	LOW
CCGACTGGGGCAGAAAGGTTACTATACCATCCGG	MID
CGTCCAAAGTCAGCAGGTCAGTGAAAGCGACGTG	LOW
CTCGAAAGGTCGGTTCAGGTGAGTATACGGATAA	MID
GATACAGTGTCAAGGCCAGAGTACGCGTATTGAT	LOW
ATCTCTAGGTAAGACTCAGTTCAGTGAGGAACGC	LOW
TAGCCTAGGTCATTAGGCCAGTATAGTACGCATC	MID
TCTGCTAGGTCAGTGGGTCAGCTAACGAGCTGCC	HIGH
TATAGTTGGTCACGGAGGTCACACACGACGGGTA	MID

====

test system: PXR:RXRa (NR concentration 270 nM, RXRa partner concentration 90 nM); assay: PBM binding z-score (relative to random genomic background probes); higher = stronger binding; sequences stand for … in GC…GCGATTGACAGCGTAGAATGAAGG
PBM binding z-score vs 2: at or above is 1, below is -1.

Sequence Code	Tested On	Class
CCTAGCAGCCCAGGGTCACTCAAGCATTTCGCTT	PXR:RXRa (NR concentration 270 nM, RXRa partner concentration 90 nM)	1
TGTTGTAGATCAATAGAGGTTAAGAAAGTGCGCT	PXR:RXRa (NR concentration 270 nM, RXRa partner concentration 90 nM)	1
CCTACTGAGCCAAGGTCATTGATCAGTCAAAGCA	PXR:RXRa (NR concentration 270 nM, RXRa partner concentration 90 nM)	1
TCTCGGAGGACAAGAAAGGTCAGAGCTCGACATC	PXR:RXRa (NR concentration 270 nM, RXRa partner concentration 90 nM)	1
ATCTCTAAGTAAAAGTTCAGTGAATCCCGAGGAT	PXR:RXRa (NR concentration 270 nM, RXRa partner concentration 90 nM)	-1
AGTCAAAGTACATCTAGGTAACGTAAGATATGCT	PXR:RXRa (NR concentration 270 nM, RXRa partner concentration 90 nM)	-1
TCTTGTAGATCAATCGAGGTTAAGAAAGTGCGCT	PXR:RXRa (NR concentration 270 nM, RXRa partner concentration 90 nM)	1
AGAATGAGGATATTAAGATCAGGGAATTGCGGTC	PXR:RXRa (NR concentration 270 nM, RXRa partner concentration 90 nM)	-1
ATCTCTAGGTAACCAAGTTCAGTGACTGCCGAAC	PXR:RXRa (NR concentration 270 nM, RXRa partner concentration 90 nM)	1
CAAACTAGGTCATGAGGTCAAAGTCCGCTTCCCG	PXR:RXRa (NR concentration 270 nM, RXRa partner concentration 90 nM)	1
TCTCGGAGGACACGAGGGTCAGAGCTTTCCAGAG	PXR:RXRa (NR concentration 270 nM, RXRa partner concentration 90 nM)	-1
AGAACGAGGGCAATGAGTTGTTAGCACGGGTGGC	PXR:RXRa (NR concentration 270 nM, RXRa partner concentration 90 nM)	-1

====

test system: LXRb homodimer (NR concentration 270 nM); experiment: PBM binding z-score (relative to random genomic background probes); higher = stronger binding; sequences stand for … in GC…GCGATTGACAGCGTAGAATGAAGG
Outcome Measure: PBM binding z-score

Sequence Code	Outcome Measure	Observed Result
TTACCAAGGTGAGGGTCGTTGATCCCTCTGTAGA	PBM binding z-score	-0.774
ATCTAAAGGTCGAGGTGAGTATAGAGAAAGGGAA	PBM binding z-score	1.17
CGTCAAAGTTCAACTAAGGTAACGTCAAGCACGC	PBM binding z-score	2.06
ACAGACAGGTGATGAAGGTAACTCCGGCTATCAT	PBM binding z-score	-0.444
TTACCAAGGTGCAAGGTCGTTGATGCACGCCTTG	PBM binding z-score	-0.474
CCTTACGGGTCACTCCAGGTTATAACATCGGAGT	PBM binding z-score	0.0817
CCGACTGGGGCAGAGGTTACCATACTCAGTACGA	PBM binding z-score	-1.08
GCATATAGGTAATACAAGTTGAAAGTCCGATTGT	PBM binding z-score	-0.33
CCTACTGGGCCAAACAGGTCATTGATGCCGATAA	PBM binding z-score	-0.709
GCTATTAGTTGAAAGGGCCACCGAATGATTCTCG	PBM binding z-score	-0.647
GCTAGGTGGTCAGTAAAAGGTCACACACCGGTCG	PBM binding z-score	0.699
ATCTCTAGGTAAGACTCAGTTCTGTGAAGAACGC	PBM binding z-score	0.696
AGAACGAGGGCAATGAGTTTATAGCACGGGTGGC	PBM binding z-score	-0.322
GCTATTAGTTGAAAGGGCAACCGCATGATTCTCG	PBM binding z-score	-0.00487
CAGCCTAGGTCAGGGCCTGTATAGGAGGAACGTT	PBM binding z-score	-0.753
GGAACGAGGGCAAAGTTGATAGTATCTGTCGACG	PBM binding z-score	-0.379
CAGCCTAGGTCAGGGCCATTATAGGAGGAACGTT	PBM binding z-score	-0.851
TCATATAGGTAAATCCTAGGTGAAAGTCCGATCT	PBM binding z-score	-0.0667
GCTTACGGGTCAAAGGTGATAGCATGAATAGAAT	PBM binding z-score	0.353
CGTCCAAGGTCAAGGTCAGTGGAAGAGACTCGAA	PBM binding z-score	0.505
AGAATGAGGTTAAGCTCAGGGAAACAGAATACAT	PBM binding z-score	-0.626
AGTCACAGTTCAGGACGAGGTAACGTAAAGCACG	PBM binding z-score	-0.159
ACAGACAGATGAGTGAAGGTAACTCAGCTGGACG	PBM binding z-score	-0.174
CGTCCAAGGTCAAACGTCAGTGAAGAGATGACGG	PBM binding z-score	1.77
TCTACTAGGTCAGTTGGTCAGCTAACGAGCTGCC	PBM binding z-score	1.06
CGGCCTAGGTCAGGGCCAGTATAGGAGGAACGTT	PBM binding z-score	-1.29
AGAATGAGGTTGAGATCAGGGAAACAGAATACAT	PBM binding z-score	-0.585
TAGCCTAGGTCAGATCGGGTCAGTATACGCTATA	PBM binding z-score	-0.00739
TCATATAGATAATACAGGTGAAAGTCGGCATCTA	PBM binding z-score	0.215
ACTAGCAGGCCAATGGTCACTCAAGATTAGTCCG	PBM binding z-score	-0.678
CAAACTAGGTCACCGGAAGGTCCAAGTCCGCATG	PBM binding z-score	0.547
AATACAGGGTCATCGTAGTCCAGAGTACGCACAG	PBM binding z-score	1.9
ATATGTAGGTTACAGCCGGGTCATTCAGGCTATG	PBM binding z-score	0.202
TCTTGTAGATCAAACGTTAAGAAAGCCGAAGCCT	PBM binding z-score	-0.0447
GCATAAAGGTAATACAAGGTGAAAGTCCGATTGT	PBM binding z-score	-0.394
ACTTGCAGGCCAAGTTTGGGTCACTCAAACAAAG	PBM binding z-score	-0.0882
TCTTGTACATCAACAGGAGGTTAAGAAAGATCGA	PBM binding z-score	0.442
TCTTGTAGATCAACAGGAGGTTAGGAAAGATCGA	PBM binding z-score	-0.324
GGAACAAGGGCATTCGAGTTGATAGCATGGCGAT	PBM binding z-score	-0.333
TCATATAGGTAAAAGGTGAAAGTAGGTGTGGTAA	PBM binding z-score	0.226
TAACCAAGGTGAAGGTCGTTGATCCCTCTGTAGA	PBM binding z-score	-0.394
ACTTACGGGTCATCGAGGTTATAGCACGCGTATA	PBM binding z-score	0.569
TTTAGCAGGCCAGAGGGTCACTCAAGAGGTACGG	PBM binding z-score	-0.78
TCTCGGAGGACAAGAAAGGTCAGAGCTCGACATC	PBM binding z-score	-0.275
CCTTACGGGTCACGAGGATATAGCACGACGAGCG	PBM binding z-score	-0.175
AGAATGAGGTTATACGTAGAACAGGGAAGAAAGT	PBM binding z-score	0.0441
ATATGTAGGTTAGCTGGTGTCATTCAGACTAGGC	PBM binding z-score	0.392
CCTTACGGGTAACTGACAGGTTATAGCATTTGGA	PBM binding z-score	-0.428
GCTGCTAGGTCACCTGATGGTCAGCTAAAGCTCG	PBM binding z-score	-0.22
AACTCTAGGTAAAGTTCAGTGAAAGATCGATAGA	PBM binding z-score	0.134
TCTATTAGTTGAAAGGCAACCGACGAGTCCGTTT	PBM binding z-score	0.728
